Measured values drawn from patent US10946029B2 for this set.

Assay: Particle size distribution by laser diffraction (Malvern apparatus)
Assay type: physicochemical
Conditions: micronised beclometasone dipropionate; volume diameter of 50% of the particles
Method: The size of the particles active is determined by measuring the characteristic equivalent sphere diameter, known as volume diameter, by laser diffraction. In the reported examples, the volume diameter has been determined using a Malvern apparatus, However, other equivalent apparatus may be used by the skilled person in the art. The particle size was determined by laser diffraction using a Malvern apparatus. […]
Recorded endpoint: d (v, 0.5) (μm)

1) CCC(=O)OCC(=O)[C@@]1(OC(=O)CC)[C@@H](C)C[C@H]2[C@@H]3CCC4=CC(=O)C=C[C@]4(C)[C@@]3(Cl)[C@@H](O)C[C@@]21C [Batch 4, beclometasone dipropionate] : 1.84
2) CCC(=O)OCC(=O)[C@@]1(OC(=O)CC)[C@@H](C)C[C@H]2[C@@H]3CCC4=CC(=O)C=C[C@]4(C)[C@@]3(Cl)[C@@H](O)C[C@@]21C [Batch 2, beclometasone dipropionate] : 1.81
3) CCC(=O)OCC(=O)[C@@]1(OC(=O)CC)[C@@H](C)C[C@H]2[C@@H]3CCC4=CC(=O)C=C[C@]4(C)[C@@]3(Cl)[C@@H](O)C[C@@]21C [Batch 3, beclometasone dipropionate] : 1.71
4) CCC(=O)OCC(=O)[C@@]1(OC(=O)CC)[C@@H](C)C[C@H]2[C@@H]3CCC4=CC(=O)C=C[C@]4(C)[C@@]3(Cl)[C@@H](O)C[C@@]21C [Batch 1, beclometasone dipropionate] : 1.63
